B1: HESX1 (parent)
chain: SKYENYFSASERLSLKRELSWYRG

# Variants of: B1
# Method Description: protein stability index of a GFP-peptide fusion (GPS, HEK-293T) (PSI 1-6); higher = more stable;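 further: lentivirally expressed fusions sorted by FACS into six bins by GFP to DsRed ratio, PSI derived from sequencing read proportions per bin multiplied by bin number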
# Experimental Parameters: c terminus: a fixed tail appended
If the reported protein stability index equals or exceeds 2, assign label 1. If not, assign label 0.

| Polymer Sequence | Group Label |
| --- | --- |
| SKYENYFSASERLSLKGELSWYRG | label 0 |
| SKYENYFSASERLSNKRELSWYRG | label 1 |
| SKSENYFSASERLSLKRELSWYRG | label 1 |
| SKYEPYFSASERLSLKRELSWYRG | label 0 |
| SKCENYFSASERLSLKRELSWYRG | label 0 |
| SKYENYFSASERLSLKRELSWYQG | label 1 |
| SKYANYFSASERLSLKRELSWYRG | label 0 |
| SKYENYFSASERLSLKRELSNYRG | label 1 |
| SKYENYFSASERLSLKYELSWYRG | label 1 |
| SKYENYFSASERLSLKTELSWYRG | label 0 |
